- assay_text: Particle size and polydispersity index of nanoparticle compositions (Zetasizer Nano ZS)
- Assay type: physicochemical
- experimental_setup: nanoparticle composition with hEPO mRNA (Table 30)
- Description: A Zetasizer Nano ZS (Malvern Instruments Ltd, Malvern, Worcestershire, UK) can be used to determine the particle size, the polydispersity index (PDI) and the zeta potential of the nanoparticle compositions in 1×PBS in determining particle size and 15 mM PBS in determining zeta potential.
# reported PDI; entries follow

>  <molecule>
CCCCCCCCCOC(=O)CCCCCCCN(CCO)CCCCCCCC(=O)OC(CCCCCCCC)CCCCCCCC

>  <PDI>
0.230

$$$$
>  <molecule>
CCCCCCCCC(C)OC(=O)CCCCCCCN(CCO)CCCCCCCC(=O)OC(CCCCCCCC)CCCCCCCC (centres unmarked)

>  <PDI>
0.176

$$$$
>  <molecule>
CCCCCCCCCOC(=O)CCCN(CCO)CCCCCCCC(=O)OC(CCCCCCCC)CCCCCCCC

>  <PDI>
0.120

$$$$
>  <molecule>
CCCCCCCCCCCOC(=O)CCCCCN(CCO)CCCCCCCC(=O)OC(CCCCCCCC)CCCCCCCC

>  <PDI>
0.230

$$$$
>  <molecule>
CCCCC/C=C\C/C=C\CCCCCCCCC(CCCCCCCC/C=C\C/C=C\CCCCC)OC(=O)CCCN(C)C [MC3, DLin-MC3-DMA, reference compound]

>  <PDI>
0.220

$$$$

###

- System: sC5b-9
- assay_text: Complement activation in vitro (sC5b-9 levels)
- Assay type: cell-based
- experimental_setup: human cells contacted in vitro
Hi, to clarify the labels: Yes covers Fold increase in sC5b-9 levels versus saline from 1 upward, No covers anything below 1.

>  <molecule>
CCCCCC/C=C\COC(=O)CCCCCCCN(CCO)CCCCCCCC(=O)OC(CCCCCCCC)CCCCCCCC [Compound 24]

>  <assigned_label>
No

$$$$
>  <molecule>
CCCCC/C=C\C/C=C\CCCCCCCCN(CCO)CCCCCCCC(=O)OCCCCCCCCC [Compound 136]

>  <assigned_label>
No

$$$$
>  <molecule>
CCCCCCCCCCCOC(=O)CCCCCN(CCO)CCCCCC(=O)OCCCCCCCCCCC [Compound 141]

>  <assigned_label>
Yes

$$$$
>  <molecule>
CCCCCC/C=C\COC(=O)CCCCCCCN(CCO)CCCCCCCC(=O)OC/C=C\CCCCCC [Compound 139]

>  <assigned_label>
No

$$$$
>  <molecule>
CCCCCCCCCOC(=O)CCCCCCCN(CCO)CCCCCCCC(=O)OC(CCCCCCCC)CCCCCCCC [Compound 18]

>  <assigned_label>
Yes

$$$$
>  <molecule>
CCCCC/C=C\C/C=C\CCCCCCCCN(CCO)CCCCCCCC(=O)OC(CCCCCCCC)CCCCCCCC [Compound 6]

>  <assigned_label>
Yes

$$$$
>  <molecule>
CCCCCCCCCOC(=O)CCCCCCCN(CCCCCCCC(=O)OC(CCCCCCCC)CCCCCCCC)CCOC(C)=O [Compound 9]

>  <assigned_label>
No

$$$$

###

- assay_text: Nanoparticle characterisation: particle size, polydispersity index, zeta potential
- Format: physicochemical
- experimental_setup: nanoparticle composition with hEPO mRNA (Table 30)
We begin with a simple list: items and their reported pH.

>  <molecule>
CCCCCCCCCOC(=O)CCCN(CCO)CCCCCCCC(=O)OC(CCCCCCCC)CCCCCCCC

>  <pH>
7.54

$$$$
>  <molecule>
CCCCCCCCCCCOC(=O)CCCCCN(CCO)CCCCCCCC(=O)OC(CCCCCCCC)CCCCCCCC

>  <pH>
7.60

$$$$
>  <molecule>
CCCCCCCCC(C)OC(=O)CCCCCCCN(CCO)CCCCCCCC(=O)OC(CCCCCCCC)CCCCCCCC (centres unmarked)

>  <pH>
7.58

$$$$
>  <molecule>
CCCCC/C=C\C/C=C\CCCCCCCCC(CCCCCCCC/C=C\C/C=C\CCCCC)OC(=O)CCCN(C)C [MC3, DLin-MC3-DMA, reference compound]

>  <pH>
7.52

$$$$
>  <molecule>
CCCCCCCCCOC(=O)CCCCCCCN(CCO)CCCCCCCC(=O)OC(CCCCCCCC)CCCCCCCC

>  <pH>
7.64

$$$$

###

- assay_text: Particle size and polydispersity index of nanoparticle compositions (Zetasizer Nano ZS)
- Type: physicochemical
- experimental_setup: Table 1B; formulated with hEPO mRNA
Listing of recorded PDI by entry.

>  <molecule>
CCCCCCCCCOC(=O)CCCCCCCN(CCCCCCCC(=O)OC(CCCCCCCC)CCCCCCCC)CCCNC(C)=O

>  <PDI>
0.22

$$$$
>  <molecule>
CCCCCCCCCOC(=O)CCCCCCCN(CCCCCCCC(=O)OC(CCCCCCCC)CCCCCCCC)CCCC(=O)NC

>  <PDI>
0.14

$$$$
>  <molecule>
CCCCCCCCCOC(=O)CCCCCCCN(CCO)CCCCCC(=O)OC1CCC(CCCCC)CC1 (stereo not shown)

>  <PDI>
0.23

$$$$
>  <molecule>
CCCCCCCCC(CCCCCCCC)OC(=O)CCCCCCCN(CCO)CCCCCCCC(=O)OCC(C)CCCCCCC (stereo not shown)

>  <PDI>
0.16

$$$$
>  <molecule>
CCCCCCCCC(C)OC(=O)CCCCCN(CCO)CCCCCCCC(=O)OC(CCCCCCCC)CCCCCCCC (stereo not shown)

>  <PDI>
0.12

$$$$
>  <molecule>
CCCCCCCCCOC(=O)CCCCCCCN(CCCCCCCC(=O)OC(CCCCCCCC)CCCCCCCC)CCCNC(=O)NC

>  <PDI>
0.21

$$$$
>  <molecule>
CCCCCCCCCOC(=O)CCCCCCCN(CCO)CCCCCCCOC(=O)C(CCCCCCCC)CCCCCCCC

>  <PDI>
0.13

$$$$

###

- assay_text: Particle size and polydispersity index of nanoparticle compositions (Zetasizer Nano ZS)
- Assay type: physicochemical
- experimental_setup: Table 1A
Listing: PDI of selected compounds

>  <compound>
CCCCCCCCCOC(=O)CCCCCCCN(CCCCCCCC(=O)OC(CCCCCCCC)CCCCCCCC)CCCn1ccnn1 [Compound 179]

>  <PDI>
0.11

$$$$
>  <compound>
CCCCCCCCCOC(=O)C(C)CCCCCCN(CCO)CCCCCCCOC(=O)C(CCCCCCCC)CCCCCCCC (centres unmarked) [Compound 163]

>  <PDI>
0.10

$$$$
>  <compound>
CCCCCCCCCCCOC(=O)CCCCCN(CCO)CCCCCC(=O)OC(CCCCCCCCCC)CCCCCCCCCC [Compound 185]

>  <PDI>
0.14

$$$$
>  <compound>
CCCCCCCCC(C)OC(=O)CCCCCCCN(CCO)CCCCCCCC(=O)OC(CCCCCCCC)CCCCCCCC (centres unmarked) [Compound 48]

>  <PDI>
0.092

$$$$
>  <compound>
CCCCCCCCCOC(=O)CCCCCCCN(CCO)CCCCCCC/C=C\C(CCCCCCCC)CCCCCCCC [Compound 152]

>  <PDI>
0.072

$$$$
>  <compound>
CCCCCCCCCOC(=O)CCCCCCCN(CCO)CCCCCCC(=O)OCC(CCCCCCCC)CCCCCCCC [Compound 143]

>  <PDI>
0.21

$$$$
>  <compound>
CCCCCCCCCOC(=O)CCCCCCCN(CCO)CCCCCCCCCC(=O)OC(CCCCCC)CCCCCC [Compound 147]

>  <PDI>
0.130

$$$$
>  <compound>
CCCCCCCCCOC(=O)CCCCCCCN(CCCCCCCC(=O)OC(CCCCCCCC)CCCCCCCC)CCN1CCN(C)CC1 [Compound 101]

>  <PDI>
0.230

$$$$
>  <compound>
CCCCCCCCCN(CCCO)CCCCCCCC(=O)OC(CCCCCCCC)CCCCCCCC [Compound 7]

>  <PDI>
0.22

$$$$
>  <compound>
CCCCCCCCCOC(=O)CCCCCCCN(CCO)CCCCCCCC(=O)OC(C)(C)C [Compound 158]

>  <PDI>
0.080

$$$$
>  <compound>
CCCCCCCCCC(=O)OCCCCCCCN(CCO)CCCCCCCOC(=O)C(CCCCCCCC)CCCCCCCC [Compound 151]

>  <PDI>
0.140

$$$$
>  <compound>
CCCCCCCCCOC(=O)CCCCCCCN(CCCCO)CCCCCCCC(=O)OC(CCCCCCCC)CCCCCCCC [Compound 20]

>  <PDI>
0.13

$$$$
>  <compound>
CCCCCCCCCOC(=O)CCCCCCCN(CCCCCCCC(=O)OC(CCCCCCCC)CCCCCCCC)CCCN(C)S(C)(=O)=O [Compound 173]

>  <PDI>
0.16

$$$$
>  <compound>
CCCCCCCCCOC(=O)CCCCCCCN(CCCCCCCC(=O)OC(CCCCCCCC)CCCCCCCC)CCCNC(=S)N(C)C [Compound 111]

>  <PDI>
0.22

$$$$
>  <compound>
CCCCCCCCCOC(=O)CCCCCCCN(CCO)CCCCCC(=O)OC(CCCCCCCC)CCCCCCCC [Compound 27]

>  <PDI>
0.18

$$$$
>  <compound>
CCCCCCCCCC(=O)OCCCCCCCN(CCO)CCCCCCCC(=O)OC(CCCCCCCC)CCCCCCCC [Compound 96]

>  <PDI>
0.160

$$$$
>  <compound>
CCCCCCCCCOC(=O)CCCCCCCN(CCCCCCCC(=O)OC(CCCCCCCC)CCCCCCCC)CC(O)CO (centres unmarked) [Compound 69]

>  <PDI>
0.13

$$$$
